Biological target: ABP57 (Oryza sativa subsp. japonica, UniProt B7ELI0)
Sequence (B7ELI0 entry or part of it): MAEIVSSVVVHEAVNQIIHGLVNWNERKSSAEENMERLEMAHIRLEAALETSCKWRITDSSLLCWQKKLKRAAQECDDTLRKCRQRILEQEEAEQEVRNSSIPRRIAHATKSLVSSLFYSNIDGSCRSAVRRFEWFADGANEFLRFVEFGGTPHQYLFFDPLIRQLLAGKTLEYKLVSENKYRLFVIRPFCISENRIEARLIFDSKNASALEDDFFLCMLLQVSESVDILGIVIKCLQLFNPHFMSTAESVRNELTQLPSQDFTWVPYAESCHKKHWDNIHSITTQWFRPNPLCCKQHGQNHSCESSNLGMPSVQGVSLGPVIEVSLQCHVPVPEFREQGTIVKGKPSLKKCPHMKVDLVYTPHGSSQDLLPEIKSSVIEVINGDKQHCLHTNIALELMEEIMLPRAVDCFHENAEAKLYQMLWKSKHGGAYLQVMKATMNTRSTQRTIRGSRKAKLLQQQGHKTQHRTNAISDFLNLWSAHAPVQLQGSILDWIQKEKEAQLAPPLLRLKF
Assay: Scatchard analysis of binding between recombinant ABP57 and auxin hormone IAA
Conditions: recombinant protein, FIG. 9, read-out: IAA dissociation constant
MEASURED_ATTRIBUTE: Kd (µM)

[[record]]
compound = "O=C(O)Cc1c[nH]c2ccccc12 [IAA, indole-3-acetic acid]"
endpoint_result = 3.6

